meta.source: paper PMC5104186

# System: α5β1γ2 GABA-A receptor
# reported.conditions: agonist; +50 mV; nH 1.8
property: pEC50
Bear in mind: pEC50 is minus log10 of a mol/L concentration; give just that figure.

Asked: Would you kindly share the measured pEC50 for `O=C(O)[C@@H]1CCCN1` ?
Given back: 2.27
